Measured values drawn from patent US20230028441A1 for this set.

# Tested on: southern root-knot nematode (Meloidogyne incognita)
# ASSAY_NOTES: Meloidogyne incognita test
# Type: in vivo
# CONDITIONS_USED: 336 h, after 14 days, read-out: nematicidal activity (gall formation)
Measured pest or weed control at 20 ppm, listed per entry.
Answer in %, number only, no unit symbol.

Below: 3 compounds and their reported pest or weed control at 20 ppm.
CC(NC(=O)c1cc(Cl)cc(C(F)(F)F)c1)c1nc([S+](C)[O-])nn1-c1ccc(Cl)cn1 (stereo not shown)    90
C[C@H](NC(=O)c1cc(OC(F)(F)F)cc(C2CC2)c1)c1nc(N2CCOCC2)nn1-c1ncccn1    100
CNc1nc([C@H](C)NC(=O)c2cc(Br)cc(OC(F)(F)F)c2)n(-c2ncccn2)n1    90

With those in mind, consider the next compound.
Request: For the compound CNC(=O)c1nc(C(C)NC(=O)c2cc(Cl)cc(C(F)(F)F)c2)n(-c2ncccn2)n1 (stereo not shown) , report pest or weed control at 20 ppm.
Result: 90

###

# Tested on: larvae of the southern green stink bug (Nezara viridula)
# ASSAY_NOTES: Nezara viridula spray test
# Format: in vivo
# CONDITIONS_USED: in Hordeum vulgare, 96 h
RESULT_TYPE: mortality at 500 g/ha (%)
Answer in %, number only, no unit symbol.

Below: 3 compounds and their reported mortality at 500 g/ha.
CC(NC(=O)c1cc(OC(F)(F)F)cc(C2CC2)c1)c1nc(N2CCCCC2)nn1-c1ncccn1 (stereo not shown)    90
CNc1nc([C@H](C)NC(=O)c2cc(Cl)cc(S(=O)(=O)C(F)F)c2)n(-c2ncccn2)n1    100
CNc1nc([C@H](C)NC(=O)c2cc(C(F)(F)F)cc(C(F)(F)F)c2)n(-c2ncccn2)n1    100

Request: Report value only: mortality at 500 g/ha, larvae of the southern green stink bug (Nezara viridula), CNc1nc([C@H](C)NC(=O)c2cc(Cl)cc(S(=O)(=O)C(F)(F)F)c2)n(-c2ncccn2)n1
Result: 100

Request: Report value only: mortality at 500 g/ha, larvae of the southern green stink bug (Nezara viridula), CC(NC(=O)c1cc(Cl)cc(C(F)(F)F)c1)c1nc(N)nn1-c1ccc(Cl)cn1 (racemic)
Result: 100

Request: Report value only: mortality at 500 g/ha, larvae of the southern green stink bug (Nezara viridula), CC(NC(=O)c1cc(OC(F)(F)F)cc(S(=O)(=O)C2CC2)c1)c1nc(N(C)C)nn1-c1ncc(Cl)cn1 (stereo not shown)
Result: 100

Request: Report value only: mortality at 500 g/ha, larvae of the southern green stink bug (Nezara viridula), C[C@H](NC(=O)c1cc(Br)cc(Br)c1)c1nc(N(C)C)nn1-c1ncccn1
Result: 90

Request: Report value only: mortality at 500 g/ha, larvae of the southern green stink bug (Nezara viridula), CC(NC(=O)c1cc(Cl)cc(OC(F)(F)F)c1)c1nc(-c2ncccn2)nn1-c1ncccn1 (stereo not shown)
Result: 100

Request: Report value only: mortality at 500 g/ha, larvae of the southern green stink bug (Nezara viridula), CNc1nc([C@H](C)NC(=O)c2cc(OC(F)(F)F)cc(S(=O)(=O)C3CC3)c2)n(-c2ncccn2)n1
Result: 100

Request: Report value only: mortality at 500 g/ha, larvae of the southern green stink bug (Nezara viridula), C[C@H](NC(=O)c1cc(C(F)(F)F)cc(C(F)(F)F)c1)c1nc(N)nn1-c1ccc(C#N)cn1
Result: 90

Request: Report value only: mortality at 500 g/ha, larvae of the southern green stink bug (Nezara viridula), CC(NC(=O)c1cc(Cl)cc(S(C)(=O)=O)c1)c1nc(S(C)(=O)=O)nn1-c1ccc(Cl)cn1 (racemic)
Result: 100

Request: Report value only: mortality at 500 g/ha, larvae of the southern green stink bug (Nezara viridula), C[C@H](NC(=O)c1cc(OC(F)(F)F)cc(S(C)(=O)=O)c1)c1nc(N)nn1-c1ncccn1
Result: 100

Request: Report value only: mortality at 500 g/ha, larvae of the southern green stink bug (Nezara viridula), CNc1nc([C@H](C)NC(=O)c2cc(Br)cc(OC(F)(F)F)c2)n(-c2ncccn2)n1
Result: 100

Request: Report value only: mortality at 500 g/ha, larvae of the southern green stink bug (Nezara viridula), CC(NC(=O)c1cc(OC(F)(F)F)cc(C2CC2)c1)c1nc(N(C)C)nn1-c1ncc(Cl)cn1 (stereo not shown)
Result: 100

Request: Report value only: mortality at 500 g/ha, larvae of the southern green stink bug (Nezara viridula), CC(NC(=O)c1cc(C(F)(F)F)cc(C(F)(F)F)c1)c1nc(N)nn1-c1ccc(C(=O)N2CCOCC2)cn1 (stereo not shown)
Result: 100

Request: Report value only: mortality at 500 g/ha, larvae of the southern green stink bug (Nezara viridula), C[C@H](NC(=O)c1cc(OC(F)(F)F)cc(C2CC2)c1)c1nc(N2CCCC2)nn1-c1ncccn1
Result: 100

###

Measured mortality at 100 g/ha, listed per entry.
# Tested on: fall armyworm larvae (Spodoptera frugiperda)
# ASSAY_NOTES: Spodoptera frugiperda spray test (maize leaf sections)
# Format: in vivo
# CONDITIONS_USED: 168 h
Lab note: write values as number then unit, every time.

CC(=O)N(C)c1nc(C(C)NC(=O)c2cc(C(F)(F)F)cc(C(F)(F)F)c2)n(-c2ncccn2)n1 (stereo not shown)    100%

Request: For the molecule C[C@H](NC(=O)c1cc(OC(F)(F)F)cc(C2CC2)c1)c1nc(N)nn1-c1ncccn1 , report mortality at 100 g/ha.
Result: 100%

Request: For the molecule C[C@H](NC(=O)c1cc(C(F)(F)F)cc(C(F)(F)F)c1)c1nc(N)nn1-c1ncccn1 , report mortality at 100 g/ha.
Result: 100%

Request: For the molecule CNc1nc(C(C)NC(=O)c2cc(C(F)(F)F)cc(C(F)(F)F)c2)n(-c2ncccn2)n1 (stereo not shown) , report mortality at 100 g/ha.
Result: 100%

Request: For the molecule CNc1nc(C(C)NC(=O)c2cc(Cl)cc(OC(F)(F)F)c2)n(-c2ncccn2)n1 (stereo not shown) , report mortality at 100 g/ha.
Result: 100%

Request: For the molecule C[C@H](NC(=O)c1cc(C(F)(F)F)cc(C(F)(F)F)c1)c1nc(N2CCOCC2)nn1-c1ccc(C#N)cn1 , report mortality at 100 g/ha.
Result: 100%

Request: For the molecule C[C@H](NC(=O)c1cc(C(F)(F)F)cc(C(F)(F)F)c1)c1nc(N(C)C(=O)OC(C)(C)C)nn1-c1ncccn1 , report mortality at 100 g/ha.
Result: 100%

Request: For the molecule CC(NC(=O)c1cc(Br)cc(C(F)(F)F)c1)c1nc(N(C)C(=O)OC(C)(C)C)nn1-c1ncccn1 (stereo not shown) , report mortality at 100 g/ha.
Result: 100%

Request: For the molecule CC(NC(=O)c1cc(Cl)cc(S(C)(=O)=O)c1)c1nc(N(C)C)nn1-c1ncc(Cl)cn1 (stereo not shown) , report mortality at 100 g/ha.
Result: 100%

###

# Tested on: adult engorged female ticks (Rhipicephalus microplus)
# ASSAY_NOTES: Rhipicephalus (Boophilus) microplus injection test
# Assay type: in vivo
# CONDITIONS_USED: 168 h, 4 μg/animal, egg deposition after 7 days, read-out: efficacy (infertile eggs)
# Protocol: Solvent: dimethyl sulfoxide To produce a suitable preparation of active compound, 10 mg of active compound are dissolved in 0.5 mL solvent, and the concentrate is diluted with solvent to the desired concentration. Five adult engorged female ticks (Rhipicephalus microplus) are injected with 1 μL compound solution into the abdomen. The ticks are transferred into replica plates and incubated in a climate chamber. After 7 days egg deposition of fertile eggs is monitored. […]
RESULT_TYPE: pest or weed control at 0.004 mg (%)
Answer in %, number only, no unit symbol.

Below: 3 molecules and their reported pest or weed control at 0.004 mg.
CC(NC(=O)c1cc(Cl)cc(C(F)(F)F)c1)c1nc(NC(=O)OC(C)(C)C)nn1-c1ccc(Cl)cn1 (stereo not shown)    80
CC(NC(=O)c1cc(Cl)cc(C(F)(F)F)c1)c1nc(NC(=O)C2CC2(F)F)nn1-c1ccc(Cl)cn1 (stereo not shown)    100
CC(NC(=O)c1cc(Cl)cc(C(F)(F)F)c1)c1nc(N)nn1-c1ccc(Cl)cn1 (racemic)    100

With those in mind, consider the next molecule.
Request: For the molecule CC(NC(=O)c1cc(Cl)cc(C(F)(F)F)c1)c1nc(C(=O)NC2CC2)nn1-c1ncccn1 (single isomer, unassigned) , report pest or weed control at 0.004 mg.
Result: 100

###

Measured mortality at 4 ppm, listed per entry.
# Test system: green peach aphid (Myzus persicae)
# ASSAY_NOTES: Myzus persicae oral test
# Format: in vivo
# CONDITIONS_USED: 120 h
Lab note: write values as number then unit, every time.

Below: 5 compounds and their reported mortality at 4 ppm.
CNc1nc(C(C)NC(=O)c2cc(OC(F)(F)F)cc(C3CC3)c2)n(-c2ncccn2)n1 (stereo not shown)    100%
CC(NC(=O)c1cc(Br)cc(Br)c1)c1nc(N)nn1-c1ccc(C(=O)N2CCOCC2)cn1 (racemic)    90%
CC(NC(=O)c1cc(C(F)(F)F)cc(C(F)(F)F)c1)c1nc(N(C)C(=O)OC(C)(C)C)nn1-c1ncccn1 (racemic)    100%
COC(=O)Nc1nc(C(C)NC(=O)c2cc(Cl)cc(C(F)(F)F)c2)n(-c2ccc(Cl)cn2)n1 (racemic)    90%
CNc1nc(C(C)NC(=O)c2cc(C(F)(F)F)cc(C(F)(F)F)c2)n(-c2ncccn2)n1 (stereo not shown)    100%

Request: For the compound CC(NC(=O)c1cc(Br)cc(C(F)(F)F)c1)c1nc(N(C)C(=O)OC(C)(C)C)nn1-c1ncccn1 (stereo not shown) , report mortality at 4 ppm.
Result: 100%

Request: For the compound CC(=O)Nc1nc(C(C)NC(=O)c2cc(Cl)cc(C(F)(F)F)c2)n(-c2ccc(Cl)cn2)n1 (racemic) , report mortality at 4 ppm.
Result: 100%
